- experiment.notes: COV-362 Cancer Cell Toxicity qHTS against the NCATS CANVASS Library (AID 1347352)
- run.parameters: COV-362 viability, CellTiter-Glo luminescence, 72 h; series mostly up to 38.3 µM
Results filed as inconclusive are left out. The source made the active and inactive calls. Calls come from the whole dose curve; as a rule, active = well fitted cell-killing curve with a large enough effect; inconclusive = small, poorly fitted or top-dose-only effect; inactive = flat fitted curve, though single readings scatter.
Result category, one only: 1 (active), 0 (inactive)

For CCC(=O)CCCCC[C@@H]1NC(=O)[C@H]2CCCCN2C(=O)[C@H]([C@@H](C)CC)NC(=O)[C@H](Cc2cn(OC)c3ccccc23)NC1=O , what call appears in the results of this test? 1

// return assay outcome for CCN1C[C@]2(C)CC[C@@H](O)[C@]34C1[C@H](C[C@H]23)C12CCC(CC14)[C@](O)(CO)[C@H]2O (some centres undefined) 0

Which outcome was assigned to CC=C1CN(C=O)[C@H]2C[C@@H]1[C@@H](C(=O)OC)[C@@]13CCOC21Nc1ccccc13 (some centres undefined) in this test? 0

So what was the verdict on CNCCc1c[nH]c2ccccc12 in this test? 0

* * *

- experiment.notes: qHTS for Inhibitors of the Functional Ribonucleoprotein Complex (vRNP) of Lassa (LASV) Arenavirus: Viability assay - alamar blue signal for LASV Primary Screen (AID 1347083); note: nearly all actives have a fitted effect of over 80% in size
- run.parameters: cell viability, alamar blue fluorescence (LASV minigenome counter-screen); series mostly up to 57.5 µM
Inconclusive results are not listed. The source made the active and inactive calls. The call rests on the fitted dose curve; tested in HEK293 reporter line.
I would appreciate it if you answered using one of these outcomes: t = active, f = inactive

Worked examples follow.
O=C1c2cccc(O)c2C(=O)c2c(O)cc(CO)cc21; f
OC[C@H]1O[C@H](OCc2ccccc2)[C@H](O[C@@H]2OC[C@@H](O)[C@H](O)[C@H]2O)[C@@H](O)[C@@H]1O; f
COc1ccccc1N1CCN(CCN2C(=O)CC3(CCCC3)CC2=O)CC1; f

Field: outcome | Entry: C[C@H]1O[C@@H](O[C@H]2CC[C@@]3(C)C(CC[C@]4(C)C3C=C[C@]35OC[C@@]6(CCC(C)(C)C[C@H]63)[C@@H](O)C[C@]54C)[C@]2(C)CO)[C@H](O)[C@@H](O[C@@H]2O[C@H](CO)[C@@H](O)[C@H](O)[C@H]2O)[C@H]1O (some centres not stated) f

Field: outcome | Entry: O=C1NC(=S)NC1=Cc1ccc(O)cc1 f

Status in this test for CC[C@H](CC#N)OC(=O)N[C@@H](C)c1cccc(NC(=O)Nc2ccc(-c3cnco3)c(OC)c2)c1 ? t

Recorded test outcome, item CC[C@H]1OC(=O)[C@H](C)[C@@H](O[C@H]2C[C@@](C)(OC)[C@@H](O)[C@H](C)O2)[C@H](C)[C@@H](O[C@@H]2O[C@@H](C)C[C@H](N(C)C)[C@@H]2O)[C@](C)(O)C[C@@H](C)C(=O)[C@H](C)[C@@H](O)[C@]1(C)O f

* * *

- experiment.notes: qHTS for Inhibitors of the Functional Ribonucleoprotein Complex (vRNP) of Lassa (LASV) Arenavirus: LASV Primary Screen - GLuc reporter signal (AID 1347082); note: nearly all actives have a fitted effect of over 60% in size
- run.parameters: LASV minigenome vRNP, Gaussia luciferase reporter; series mostly up to 57.5 µM
Records with an inconclusive call do not appear. Active and inactive are the calls of the source. Calls follow the shape of the full dose curve; tested in HEK293 reporter line.
Form entry, call: pick from active, inactive

As a guide, the following entries are already answered.
O=c1c2ccccc2nc2n1CCC2; inactive
CC(=NNC(=S)N1CCC1)c1ccccn1; active
Cc1[nH]c(C=C2C(=O)Nc3ccc(S(=O)(=O)Cc4c(Cl)cccc4Cl)cc32)c(C)c1C(=O)N1CCC[C@H]1CN1CCCC1; inactive

Hey, what did the test say about O[Si](CCCN1CCCCC1)(c1ccc(F)cc1)C1CCCCC1 (stereo unspecified) ? inactive

Short answer needed: outcome of this test for CC1C(c2ccccc2)OC(=O)N1C (stereo unspecified) ? inactive

How did this test come out for COc1cc2c(cc1O)CC[n+]1cc3c(OC)c(OC)ccc3cc1-2 ? inactive

Reference source for all entries: PubChem BioAssay (NCATS)
